PBM binding z-score for assorted sequences
Test system: RARb homodimer (NR concentration 270 nM)
assay text: PBM binding z-score (relative to random genomic background probes); higher = stronger binding; sequences stand for … in GC…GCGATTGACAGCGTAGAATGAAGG
The answer should be written as a number, with no unit following it.

>  <sequence text>
CGTCCAAGGTAAGAGAGGTCAGTGAATGCCGAGT

>  <PBM binding z-score>
3.65

$$$$
>  <sequence text>
CTCGAAAGGTCAGTTGAGGTGAGTATACGGATAA

>  <PBM binding z-score>
4.91

$$$$
>  <sequence text>
TTACCAAGGTTAAAGGTCGTTGATGCACGCCTTG

>  <PBM binding z-score>
3.04

$$$$

GET /values?readout=PBM binding z-score&system=RARb homodimer (NR concentration 270 nM)&item= CGAACTCGGTCACCAGGACAGTGAAGAGGTTGGA 1.97

GET /values?readout=PBM binding z-score&system=RARb homodimer (NR concentration 270 nM)&item= TCGAGTAGGTTACGGGGCCATTCAGGGATGAAGA 1.21

GET /values?readout=PBM binding z-score&system=RARb homodimer (NR concentration 270 nM)&item= GCTGCTAGGTCAACTGATGGTCAGCTAGAGCTCG 3.68

GET /values?readout=PBM binding z-score&system=RARb homodimer (NR concentration 270 nM)&item= ATATGTAGGTTAGGGTCATTCAAAAAGTAGGGAA 3.59

GET /values?readout=PBM binding z-score&system=RARb homodimer (NR concentration 270 nM)&item= AGAATGAGGTTAACAAAGATCAGGGAAACGCTTG 0.892

GET /values?readout=PBM binding z-score&system=RARb homodimer (NR concentration 270 nM)&item= CCTGCTAGGTCAAGGGTCAGCTAAAGCAGCTCGC 4.91

====

Tested on: LXRb:RXRa (NR concentration 270 nM, RXRa partner concentration 90 nM)
assay text: PBM binding z-score (relative to random genomic background probes); higher = stronger binding; sequences stand for … in GC…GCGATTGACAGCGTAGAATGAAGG
Just so you know, the groups by PBM binding z-score go like this: low class: < 2; middle class: ≥ 2 and < 5; high class: ≥ 5

Recorded results for 5 sequences are shown here.
>  <sequence text>
CAATGTAGGTTAAGGGGGTCATTCAGTTTGAAAG

>  <discrete label>
high class

$$$$
>  <sequence text>
ATATGTAGGTTAAGGGTCATGCAGGTTGGTTCGC

>  <discrete label>
middle class

$$$$
>  <sequence text>
TGGCCTAGGTCATGGGCCAGTATACCACGCGAAC

>  <discrete label>
low class

$$$$
>  <sequence text>
CGTCCAAGGTCATAGGAGTTCAGTGAAGACAGAT

>  <discrete label>
high class

$$$$
>  <sequence text>
TCGAGTAGGTTGCGGGGGCATTCAGGGATGAAGA

>  <discrete label>
middle class

$$$$

Please let me know in which category the item ATATGCAGGTTATCGGGTCATTCAGTTTGCGCAT belongs. middle class

Please let me know in which category the item CGTCCAAGGTCAAGCTCAGTGAAAGAGACTCGAA belongs. middle class

Please let me know in which category the item CCTAGTTGGTCAGGTGGTCACACACCGGATATGA belongs. low class

Please let me know in which category the item CCAACTAGGTCATTGACAGGACAGTGAATAGTAA belongs. middle class

====

System: PXR homodimer (NR concentration 270 nM)
assay text: PBM binding z-score (relative to random genomic background probes); higher = stronger binding; sequences stand for … in GC…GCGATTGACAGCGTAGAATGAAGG
Cut-off 0.2 on PBM binding z-score, inclusive. At or above means Condition met; below means Condition not met.

>  <sequence text>
CAAACTAGGTCACAGAGGGCAAAGTCCGTGCGTA

>  <discrete label>
Condition met

$$$$
>  <sequence text>
AACGAAAGGTCGACGAGGTGAGTATACACCGTTT

>  <discrete label>
Condition met

$$$$
>  <sequence text>
ACTCGGAGGACAGAGGTCAGAGCTACGCCAGTGA

>  <discrete label>
Condition met

$$$$
>  <sequence text>
TCTCGGAGGACACGAAAGGGCAGAGCTCGACATC

>  <discrete label>
Condition not met

$$$$
>  <sequence text>
ACTTACGGGTCAACGAAGTTATAGCACGCGTATA

>  <discrete label>
Condition not met

$$$$

Does the reported PBM binding z-score for CCTTACGGGTCACTCCAGGTTCTAGCATCGGAGT fall at or above the 0.2 mark? Condition not met

Does the reported PBM binding z-score for CCTACTGGGCCATTCAGAGGTCATTGTTCATATG fall at or above the 0.2 mark? Condition met

Does the reported PBM binding z-score for CCTACTGGGCCATTCAGAGGTTATTGATCATATG fall at or above the 0.2 mark? Condition not met

Does the reported PBM binding z-score for TCTCGGAGGACACGAAAGGTCTGAGCTCGACATC fall at or above the 0.2 mark? Condition not met

Does the reported PBM binding z-score for CGAACTAGGTCAAAGCACAGTGAAAGGCGACGTA fall at or above the 0.2 mark? Condition not met

Does the reported PBM binding z-score for CTCCAAAGGTCGGTTGAGGTGAGTATACGGATAA fall at or above the 0.2 mark? Condition met

Does the reported PBM binding z-score for GCTGCTAGGTCAGGATGGTCAGCTAACGGGTACG fall at or above the 0.2 mark? Condition not met

====

Test system: PPARg:RXRa IVT, anti-PPARg (NR concentration 270 nM, RXRa partner concentration 90 nM)
assay text: PBM binding z-score (relative to random genomic background probes); higher = stronger binding; sequences stand for … in GC…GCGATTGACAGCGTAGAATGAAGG
Just so you know, the groups by PBM binding z-score go like this: lower = under 3, middle = from 3 up to 5, upper = 5 and over

Recorded results for 4 sequences are shown here.
>  <sequence text>
ATCGGAAGGTCGAGGTGAGTATAGAGAAAGGGAA

>  <discrete label>
lower

$$$$
>  <sequence text>
CCGAGTAGTTTACGAGGGGGCATTCAGTGCGAAT

>  <discrete label>
lower

$$$$
>  <sequence text>
CGTCCAAGGTCAATGCTAGGTCACTGAAAGCATT

>  <discrete label>
middle

$$$$
>  <sequence text>
CTATATAGGTTAAGGGGGTCATTCAGTTTGAAAG

>  <discrete label>
upper

$$$$

Please let me know in which category the item CCTACTGGGCCATTCAGAGGACATTGATCATATG belongs. middle

Please let me know in which category the item ACTTACGGGTCAACGGGGTTATAGCACGCGTATA belongs. middle

Please let me know in which category the item CTATGTAGGTTAAGAGGGTCATTCAGTTTGAAAG belongs. upper

Please let me know in which category the item ATCGAAGGGTCGAAGGTGAGTATACCCACCCGAA belongs. lower

Please let me know in which category the item CGTCCAAGGTCAACAGGTCAGTGAAAGCGACGTG belongs. middle

Please let me know in which category the item CTCGAAAGGTCGTGCTCAGGTGAGTATGCCAAAC belongs. lower

====

System: PPARa:RXRa (NR concentration 270 nM, RXRa partner concentration 90 nM)
assay text: PBM binding z-score (relative to random genomic background probes); higher = stronger binding; sequences stand for … in GC…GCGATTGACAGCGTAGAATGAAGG
PBM binding z-score for assorted sequences
The answer should be written as a number, with no unit following it.

Sample answers from the record:
>  <sequence text>
TCATATAGGTTAAAGGTGAAAGTCGGTGTGGTAA

>  <PBM binding z-score>
6.28

$$$$
>  <sequence text>
AATACAGGGTCACTTGGCCAGAGTAGGTACGAAT

>  <PBM binding z-score>
5.49

$$$$
>  <sequence text>
CCGAGTAGGTTACGAGGCGGCATTCAGTGCGAAT

>  <PBM binding z-score>
1.06

$$$$
>  <sequence text>
CCTTGCGGGTCACTGACAGGTTATAGCATTTGGA

>  <PBM binding z-score>
5.05

$$$$
>  <sequence text>
CGAGCTAGGTCAAAGGACAGTGAAAGGCGACGTA

>  <PBM binding z-score>
3.86

$$$$
>  <sequence text>
TAGCCTAGGTCATTGGGCTAGTATAGTACGCATC

>  <PBM binding z-score>
3.63

$$$$
>  <sequence text>
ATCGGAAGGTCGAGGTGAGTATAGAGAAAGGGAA

>  <PBM binding z-score>
2.5

$$$$
>  <sequence text>
CCGAGTAGGTTAGGAGGGGGCATTCAGTGCGAAT

>  <PBM binding z-score>
2.86

$$$$
>  <sequence text>
TAGCCTAGGTCATTCAGGGGTCAGTATAGAAAGC

>  <PBM binding z-score>
5.18

$$$$
>  <sequence text>
CCTTACGGGTCGCTGACAGGTTATAGCATTTGGA

>  <PBM binding z-score>
1.71

$$$$

GET /values?readout=PBM binding z-score&system=PPARa:RXRa (NR concentration 270 nM, RXRa partner concentration 90 nM)&item= CAAACTAGGTCAAGGTCAAAGTAGGTTTGTGCCA 6.41

GET /values?readout=PBM binding z-score&system=PPARa:RXRa (NR concentration 270 nM, RXRa partner concentration 90 nM)&item= CCTTACAGGTCAAGGTTATAGCACGGGTGGTACG 5.2

GET /values?readout=PBM binding z-score&system=PPARa:RXRa (NR concentration 270 nM, RXRa partner concentration 90 nM)&item= ATATGTAGGTTAGGGTCATTGAGAAAGTAGGGAA 5.89
